# Test system: Mycobacterium tuberculosis
# protocol: Cornell M. t heat shock assay; further: in the data most compounds retested in dose-response had high values
# Format: functional, organism-based
# Design: dose or concentration left out as unconfirmed
Screen size: about 69,000 compounds; about 950 (1.4%) showed an effect of 50% or more. What follows is part of a selection rich in strong results, with near analogues and random picks from the rest.
Exercise: for every item that follows, state its recorded Percent Effect.
Answers are plain numbers, in %.

Here are 5 molecules together with their reported answers.
{"columns": ["molecule", "uom", "Percent Effect"],
 "data": [
  ["Cc1noc(CNc2c(N3CCCC3)cccc2N2CCCC2)n1", "%", 25.1],
  ["CNC(=O)COC1COC2(CCN(Cc3ccncc3F)CC2)C1.O=C(O)C(F)(F)F (stereo not drawn)", "%", 44.76],
  ["Cc1c(CN2CCc3nc4sccc4c(=O)n3CC2)cnn1C.Cl", "%", -11.07],
  ["Cc1ccc2c(c1)SCC(=O)N2CC(=O)N1CCCC1c1nccs1 (stereo not drawn)", "%", 34.79],
  ["O=C(NCC1CC2(CO1)CN(Cc1cccs1)C2)C1CCC1.O=C(O)C(F)(F)F (stereo not drawn)", "%", -27.85]
]}

Hi, could you look up Percent Effect for each item in my list?
1. Cc1ccc(CN2CC[C@H](c3nnc(COc4ccc(F)cc4)o3)C2)o1
2. O=S(=O)(CCN1CCOC(Cn2cccn2)C1)c1ccccc1 (stereo not drawn)
3. O=C(O)C(F)(F)F.O=C(O)C(F)(F)F.O=C(c1cscn1)N1CCC2(CN(Cc3ccncc3)C2)C1
4. Cc1cnn(CC2CN(Cc3nc(-c4ccsc4)no3)CCO2)c1 (stereo not drawn)
5. Cc1cc(C)cc(N2CCN(C(=O)CCN3C[C@@H]4CC[C@H]3C4)CC2=O)c1
6. Cc1cc(=O)[nH]c(-n2nc(-c3cccs3)cc2N)n1

[102.2, 6.109, -52.86, 77.9, -4.633, 94.15]

Hi, could you look up Percent Effect for each item in my list?
1. Cc1cc(CN2CCC(CNC(=O)Cc3ccc(F)cc3)C2)[nH]n1 (stereo not drawn)
2. COc1ccccc1N1CCC(NCc2c(C)noc2C)C1 (stereo not drawn)
3. CN(Cc1cccc2cccnc12)C1CCS(=O)(=O)C1.O=C(O)CC(O)(CC(=O)O)C(=O)O (stereo not drawn)
4. CCc1c(C)nc2cc(C3CCN(Cc4ccncc4C)C3)nn2c1O (stereo not drawn)
5. Cc1cc(CN2CCC(CNC(=O)c3nccc4ccccc34)C2)[nH]n1 (stereo not drawn)
6. O=C(O)C(F)(F)F.O=C(O)C(F)(F)F.c1cc(CO[C@@H]2CC[C@H]3[C@H]2OCCN3CC2CCOCC2)ccn1
7. CCOCc1cnc2n1CCN(C(=O)c1cn(C)c3ccccc13)C2C (stereo not drawn)

-9.663
-23.49
-10.77
-4.904
59.25
-2.91
8.997

Hi, could you look up Percent Effect for each item in my list?
1. Cc1nc(CN2CCOC(Cn3cccn3)C2)no1 (stereo not drawn)
2. Cc1cnn(CC2CN(CCS(C)(=O)=O)CCO2)c1 (stereo not drawn)
3. Cc1cccn2cc(CN3CCCC(O)C3)nc12 (stereo not drawn)
4. CN(C)[C@@H]1CCN(C(=O)Cc2ccc(F)cc2)[C@H]1Cc1cnn(C)c1.O=C(O)C(F)(F)F
5. Cc1nn(C)c(C)c1S(=O)(=O)N1C[C@@H]2C[C@@H](C)O[C@@H]2C1.O=C(O)C(F)(F)F
6. CS(=O)(=O)NCCn1ccc(-c2cccs2)n1
7. CCOCc1cnc2n1CCN(C(=O)C1=CCCC1)C2C (stereo not drawn)
8. N#Cc1cccc(C(=O)N2CC[C@H]3[C@H]2CCN3CC2CC2)c1.O=C(O)C(F)(F)F

-15.93
3.305
-6.265
10.95
3.558
0.1994
-7.076
-24.15

Hi, could you look up Percent Effect for each item in my list?
1. COCC1CN(CC2CC2)Cc2nn(CC3CC3)cc21.O=C(O)C(F)(F)F (stereo not drawn)
2. c1cnn(CC2CN(Cc3nc(-c4ccsc4)no3)CCO2)c1 (stereo not drawn)
3. c1cnn(CCN2CCOC(Cn3cccn3)C2)c1 (stereo not drawn)
4. Cc1cnn(CC2CN(CCS(=O)(=O)C(F)(F)F)CCO2)c1 (stereo not drawn)
5. CCOCc1cnc2n1CCN(C(=O)c1ccoc1C)C2C (stereo not drawn)

[-19.88, -8.346, -7.25, 85.56, 26.88]

Where do the numbers come from? From ChEMBL document CHEMBL3988442.
